Items are presented alongside their recorded EC50.
Target: T1, human CD155 (poliovirus receptor, PVR) on cells (U87/U87MG, HAP1) (human, UniProt P15151 21-417)
T1 construct: whole, on cells
T1 sequence (looked up): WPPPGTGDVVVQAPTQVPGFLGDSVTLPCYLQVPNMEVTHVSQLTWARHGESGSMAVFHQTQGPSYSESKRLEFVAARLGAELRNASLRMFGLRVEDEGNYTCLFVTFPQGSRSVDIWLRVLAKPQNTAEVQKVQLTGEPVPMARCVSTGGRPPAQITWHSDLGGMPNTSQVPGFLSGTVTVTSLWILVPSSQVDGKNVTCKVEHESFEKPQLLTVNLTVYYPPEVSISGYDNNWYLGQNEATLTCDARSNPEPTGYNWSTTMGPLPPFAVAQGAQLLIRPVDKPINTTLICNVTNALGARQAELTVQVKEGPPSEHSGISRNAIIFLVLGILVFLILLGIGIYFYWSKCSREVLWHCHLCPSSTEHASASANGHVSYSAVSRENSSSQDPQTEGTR
Experiment: cell binding on HAP-1 cells
OUTCOME MEASURE: EC50 (mg/L)

binder="Ab825 (VH0/VK0), human IgG1 chimeric antibody (antibody, V domains shown, Murine variable regions in a human IgG1 chimeric antibody, derived from D171) VH: EVQLQQSGPELVKPGASVKISCKTSGYTFTEYTMHWVKQSHGKSLEWIGGIHPNNGDTSYNQRFKGKATLTVDKSSSTAYMELRSLTSEDSAVYYCARWTGDFDYWGQGTTLTVST VL: DIVMTQSPKFMSTSVGDRVSVTCKASQNVGTNVAWYQQKPGQSPKALIYSASYRYSGVPDRFTGSGSGTDFTLTISNVQSEDLAEYFCQQYNSYPYTFGGGTKLEIK" value_observed=0.0487
binder="VH3 N54S D56G / VK2 N92Q (antibody, V domains shown, Humanized variant of Ab825; also called antibody (ii); Sample 2) VH: EVQLVQSGSELKKPGASVKISCKTSGYTFTEYTMHWVRQPHGKGLEWIGGIHPNSGGTSYNQRFKGRVTLTVDKSTSTAYMELSSLRSEDTAVYYCARWTGDFDYWGQGTLVTVSS VL: DIVMTQSPSAMSASVGDRVTITCKASQNVGTNVAWYQQKPGQPPKALIYSASYRYSGVPDRFTGSGSGTDFTLTISSLQAEDLAEYFCQQYQSYPYTFGQGTKLEIK" value_observed=0.0383
binder="VH4 N54S D56G / VK3 N92Q (antibody, V domains shown, Humanized variant of Ab825; also called antibody (ix); Sample 4) VH: EVQLVQSGSELKKPGASVKVSCKTSGYTFTEYTMHWVRQPHGKGLEWIGGIHPNSGGTSYNQRFKGRVTITVDKSTSTAYMELSSLRSEDTAVYYCARWTGDFDYWGQGTLVTVSS VL: DIQMTQSPSAMSASVGDRVTITCKASQNVGTNVAWYQQKPGQPPKALIYSASYRYSGVPDRFSGSGSGTDFTLTISSLQAEDLAEYFCQQYQSYPYTFGQGTKLEIK" value_observed=0.0446
binder="VH4 N54S D56E / VK3 N92E (antibody, V domains shown, Humanized variant of Ab825; also called antibody (vi)) VH: EVQLVQSGSELKKPGASVKVSCKTSGYTFTEYTMHWVRQPHGKGLEWIGGIHPNSGETSYNQRFKGRVTITVDKSTSTAYMELSSLRSEDTAVYYCARWTGDFDYWGQGTLVTVSS VL: DIQMTQSPSAMSASVGDRVTITCKASQNVGTNVAWYQQKPGQPPKALIYSASYRYSGVPDRFSGSGSGTDFTLTISSLQAEDLAEYFCQQYESYPYTFGQGTKLEIK" value_observed=0.0984
binder="VH3 N54Q D56E / VK2 N92E (antibody, V domains shown, Humanized variant of Ab825; also called antibody (i)) VH: EVQLVQSGSELKKPGASVKISCKTSGYTFTEYTMHWVRQPHGKGLEWIGGIHPNQGETSYNQRFKGRVTLTVDKSTSTAYMELSSLRSEDTAVYYCARWTGDFDYWGQGTLVTVSS VL: DIVMTQSPSAMSASVGDRVTITCKASQNVGTNVAWYQQKPGQPPKALIYSASYRYSGVPDRFTGSGSGTDFTLTISSLQAEDLAEYFCQQYESYPYTFGQGTKLEIK" value_observed=0.168

Recorded values, source patent US20220056146A1.
